# system: T1, streptavidin-R-phycoerythrin (UniProt P22629 37-163, limits assumed)
# T1 construct: Bought conjugate; also called SA-PE; fluorescently-conjugated streptavidin probe
# T1 sequence (P22629 37-163 limits assumed): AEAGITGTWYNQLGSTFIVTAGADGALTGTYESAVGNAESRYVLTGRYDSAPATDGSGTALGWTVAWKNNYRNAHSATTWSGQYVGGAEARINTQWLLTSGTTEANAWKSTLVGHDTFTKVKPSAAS
# experiment: flow cytometry of E. coli displaying the construct, 100 nM SA-PE; 25 minutes of expression
measured_endpoint: Relative Display level (fold fluorescence above background) (fold above background)
Supply the numeric figure in fold above background, leaving out any unit text.

Name the recorded Relative Display level (fold fluorescence above background) of the binder listed here: CPX-L2-9 displaying SApep at the N-terminus (other) GQSGQAECHPQGPPCIEGRKGGQSGQSGDYNKNQYYGITAGPAYRINDWASIYGVVGVGYGKFQTTEYPTYKHDTSDYGFSYGAGLQFNPMENVALDFSYEQSRIRSVDVGTWIISVGYRFGPHNSRATSTVTGGYAQSDAQGQMNKMGGFNLKYRYEEDNSPLGVIGSFTYTEKSRTAS
23

Give a short answer stating reported Relative Display level (fold fluorescence above background) for CPX-L2-10 displaying SApep at the N-terminus (other) GQSGQAECHPQGPPCIEGRKGGQSGQSGDYNKNQYYGITAGPAYRINDWASIYGVVGVGYGKFQTTEYPTYKHDTSDYGFSYGAGLQFNPMENVALDFSYEQSRIRSVDVGTWIISVGYRFHRGYHAQRATSTVTGGYAQSDAQGQMNKMGGFNLKYRYEEDNSPLGVIGSFTYTEKSRTAS .
33

Look up Relative Display level (fold fluorescence above background) of CPX-L2-3 displaying SApep at the N-terminus (other) GQSGQAECHPQGPPCIEGRKGGQSGQSGDYNKNQYYGITAGPAYRINDWASIYGVVGVGYGKFQTTEYPTYKHDTSDYGFSYGAGLQFNPMENVALDFSYEQSRIRSVDVGTWIISVGYRFGTRGSQATSTVTGGYAQSDAQGQMNKMGGFNLKYRYEEDNSPLGVIGSFTYTEKSRTAS and report it.
29

Supply recorded Relative Display level (fold fluorescence above background) for CPX-L2-2 displaying SApep at the N-terminus (other) GQSGQAECHPQGPPCIEGRKGGQSGQSGDYNKNQYYGITAGPAYRINDWASIYGVVGVGYGKFQTTEYPTYKHDTSDYGFSYGAGLQFNPMENVALDFSYEQSRIRSVDVGTWIFSVGYRFGRKNSHATSTVTGGYAQSDAQGQMNKMGGFNLKYRYEEDNSPLGVIGSFTYTEKSRTAS here.
19

Respond only with Relative Display level (fold fluorescence above background) recorded for CPX-L2-1 (enhanced CPX, eCPX) displaying SApep at the N-terminus (other, also called eCPX-nSApep) GQSGQAECHPQGPPCIEGRKGGQSGQSGDYNKNQYYGITAGPAYRINDWASIYGVVGVGYGKFQTTEYPTYKHDTSDYGFSYGAGLQFNPMENVALDFSYEQSRIRSVDVGTWILSVGYRFGSKSRRATSTVTGGYAQSDAQGQMNKMGGFNLKYRYEEDNSPLGVIGSFTYTEKSRTAS
33

Sourced from patent US20160010082A1
